EC50 values, listed per item
assayed_system: T1, human DLL4, full length, on cells (human, UniProt Q9NR61 27-685)
T1 construct: also called huDLL4 cells; human DLL4-293G
T1 sequence (Q9NR61 27-685 limits assumed): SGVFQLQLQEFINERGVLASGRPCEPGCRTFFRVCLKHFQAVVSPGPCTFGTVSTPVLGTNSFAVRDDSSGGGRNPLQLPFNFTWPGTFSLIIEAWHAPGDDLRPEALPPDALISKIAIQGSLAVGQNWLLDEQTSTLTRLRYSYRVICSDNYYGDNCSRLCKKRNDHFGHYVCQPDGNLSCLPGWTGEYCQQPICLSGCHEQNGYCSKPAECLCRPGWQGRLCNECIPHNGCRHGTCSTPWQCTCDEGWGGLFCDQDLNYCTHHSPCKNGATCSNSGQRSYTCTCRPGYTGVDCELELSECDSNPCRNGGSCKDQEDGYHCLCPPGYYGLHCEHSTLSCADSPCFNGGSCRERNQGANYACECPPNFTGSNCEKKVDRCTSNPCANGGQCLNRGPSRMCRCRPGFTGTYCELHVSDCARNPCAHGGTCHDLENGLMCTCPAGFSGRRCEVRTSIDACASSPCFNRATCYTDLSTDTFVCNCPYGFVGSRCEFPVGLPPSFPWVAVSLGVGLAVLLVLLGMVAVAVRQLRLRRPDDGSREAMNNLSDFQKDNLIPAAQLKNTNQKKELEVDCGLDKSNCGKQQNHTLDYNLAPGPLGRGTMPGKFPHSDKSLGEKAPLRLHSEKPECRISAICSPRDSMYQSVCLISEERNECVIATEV
procedure_details: FACS, DLL4 cells
Form entry: value (nM) — number only.

Consider the worked cases shown below.
[
  {
    "binder": "37D10 rat anti-DLL4 monoclonal antibody (antibody, rat IgG2a, V domains shown, rat IgG2a/k hybridoma mAb; also called 40B10; 37D10 = 40B10) VH: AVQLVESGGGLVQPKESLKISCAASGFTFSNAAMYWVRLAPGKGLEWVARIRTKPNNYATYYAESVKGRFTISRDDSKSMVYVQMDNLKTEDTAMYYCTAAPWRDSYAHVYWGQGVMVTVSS VL: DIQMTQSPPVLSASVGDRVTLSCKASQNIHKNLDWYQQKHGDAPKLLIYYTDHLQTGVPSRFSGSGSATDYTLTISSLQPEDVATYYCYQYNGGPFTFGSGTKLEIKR",
    "assay_endpoint": "EC50",
    "units_symbol": "nM",
    "readout_value": 2.3
  },
  {
    "binder": "1A11 rat anti-DLL4 monoclonal antibody (antibody, rat IgG1, V domains shown, rat IgG1/K hybridoma mAb; also called MC13-1A11.2E1; 1A11 (rat mAb)) VH: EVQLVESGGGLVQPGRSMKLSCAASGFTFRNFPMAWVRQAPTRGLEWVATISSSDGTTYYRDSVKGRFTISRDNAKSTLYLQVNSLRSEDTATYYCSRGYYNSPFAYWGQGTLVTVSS VL: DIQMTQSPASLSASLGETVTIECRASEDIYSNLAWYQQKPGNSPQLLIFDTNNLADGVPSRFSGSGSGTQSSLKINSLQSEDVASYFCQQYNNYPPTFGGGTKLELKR",
    "assay_endpoint": "EC50",
    "units_symbol": "nM",
    "readout_value": 34.8
  }
]

Problem: Looking for the measured EC50 of 32C7 rat anti-DLL4 monoclonal antibody (antibody, rat IgG2a, V domains shown, rat IgG2a/k hybridoma mAb; also called MC10-32C7.5A4) VH: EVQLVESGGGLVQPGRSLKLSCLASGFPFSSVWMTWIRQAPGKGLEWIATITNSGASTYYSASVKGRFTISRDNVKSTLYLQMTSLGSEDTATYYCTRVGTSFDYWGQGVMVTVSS VL: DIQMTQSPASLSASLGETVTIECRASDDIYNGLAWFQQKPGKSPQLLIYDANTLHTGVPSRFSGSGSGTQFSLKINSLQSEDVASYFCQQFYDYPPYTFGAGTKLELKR , can you help?
Solution: 3.1
